Cited source: patent US7951800B2

test-protocol: liver concentrations after oral dosing in rats
Format: in vivo, Male Sprague-Dawley derived rats
stated-conditions: male, Sprague-Dawley, liver; rat, 5 mg/kg oral, 12 hours

chemical-smiles | concentration at 12 h / ng/g
CS(=O)(=O)NCc1csc2c1S(=O)(=O)N=C(c1c(O)c3ccccc3n(NCC3CC3)c1=O)N2 | 7920
CS(=O)(=O)NCc1csc2c1S(=O)(=O)N=C(c1c(O)c3ccccc3n(NC3CCC3)c1=O)N2 | 19200
CS(=O)(=O)Nc1ccc2c(c1)S(=O)(=O)N=C(c1c(O)c3ccccc3n(NC3CCC3)c1=O)N2 | 4140

====

test-protocol: liver concentrations after oral dosing in rats
Format: in vivo, Male Sprague-Dawley derived rats
stated-conditions: male, Sprague-Dawley, liver; rat, 5 mg/kg oral, 1 hour
Entries and their measured concentration at 1 h follow.
observation-type: concentration at 1 h (ng/g)

chemical-smiles | endpoint-result
CS(=O)(=O)NCc1csc2c1S(=O)(=O)N=C(c1c(O)c3ccccc3n(NC3CCC3)c1=O)N2 | 18700
CS(=O)(=O)Nc1ccc2c(c1)S(=O)(=O)N=C(c1c(O)c3ccccc3n(NC3CCC3)c1=O)N2 | 8790
CS(=O)(=O)NCc1csc2c1S(=O)(=O)N=C(c1c(O)c3ccccc3n(NCC3CC3)c1=O)N2 | 18900
